# tested-system: fructose-1,6-bisphosphatase (FBPase) (Homo sapiens)
# Sequence (P09467 1-338): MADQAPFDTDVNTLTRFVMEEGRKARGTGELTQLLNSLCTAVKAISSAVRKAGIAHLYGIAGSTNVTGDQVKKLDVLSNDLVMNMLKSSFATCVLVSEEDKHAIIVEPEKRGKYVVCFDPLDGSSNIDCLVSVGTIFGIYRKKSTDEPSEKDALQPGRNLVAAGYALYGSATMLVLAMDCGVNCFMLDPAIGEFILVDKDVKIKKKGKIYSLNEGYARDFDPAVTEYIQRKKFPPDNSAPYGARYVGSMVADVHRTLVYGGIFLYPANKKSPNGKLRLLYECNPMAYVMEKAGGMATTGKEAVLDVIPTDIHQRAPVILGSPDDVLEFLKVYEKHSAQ
# assay-notes: FBPase inhibition assay (Taketa and Pogell): conversion of fructose-1,6-bisphosphate to fructose-6-phosphate, NADPH formation at 340 nm via coupled reactions
# Format: biochemical
# measurement-conditions: concentration of inhibitor giving 50% inhibition of FBPase activity; read-out: IC50
property: IC50 (µM)

• CC(C)CC(C(=O)NCCc1ccc(O)cc1)N1C(=O)[C@@H]2Cc3ccccc3CN2C(=O)[C@@H]1Cc1ccc(O)cc1 (stereo partly drawn) = 54

A = N#Cc1ccc(C(C(=O)NCc2ccc(C(=O)N3CCOCC3)cc2)N2C(=O)[C@@H]3Cc4ccccc4CN3C(=O)[C@@H]2CC2CCCCC2)cc1 (stereo partly drawn)
B = CC(C)C[C@H]1C(=O)N2Cc3ccccc3C[C@H]2C(=O)N1C(C(=O)NCCc1ccc(O)cc1)c1ccc([N+](=O)[O-])cc1 (stereo partly drawn)
Lookup: // pick larger IC50 from pair: A vs B Refer to your chosen item by its label in the answer.
Found: A

----------
# tested-system: fructose-1,6-bisphosphatase (FBPase) (Homo sapiens)
# assay-notes: FBPase inhibition assay (Taketa and Pogell): conversion of fructose-1,6-bisphosphate to fructose-6-phosphate, NADPH formation at 340 nm via coupled reactions
# Type: biochemical
# measurement-conditions: controls used in the assay; read-out: 1(50 [IC50] of the assay controls
property: IC50 (nM)

a = O=P(O)(O)OC[C@H]1O[C@@](CO)(OP(=O)(O)O)[C@@H](O)[C@@H]1O [fructose 2.6-bisphosphate, reference compound]
b = Nc1ncnc2c1ncn2[C@@H]1O[C@H](COP(=O)(O)O)[C@@H](O)[C@H]1O [adenosine monophosphate, reference compound]
Lookup: Compare the recorded IC50 of a and b ; state which is larger. Please respond with the label that marks your chosen entry.
Found: a

----------
# tested-system: UniProt P09467
# Sequence (P09467 1-338): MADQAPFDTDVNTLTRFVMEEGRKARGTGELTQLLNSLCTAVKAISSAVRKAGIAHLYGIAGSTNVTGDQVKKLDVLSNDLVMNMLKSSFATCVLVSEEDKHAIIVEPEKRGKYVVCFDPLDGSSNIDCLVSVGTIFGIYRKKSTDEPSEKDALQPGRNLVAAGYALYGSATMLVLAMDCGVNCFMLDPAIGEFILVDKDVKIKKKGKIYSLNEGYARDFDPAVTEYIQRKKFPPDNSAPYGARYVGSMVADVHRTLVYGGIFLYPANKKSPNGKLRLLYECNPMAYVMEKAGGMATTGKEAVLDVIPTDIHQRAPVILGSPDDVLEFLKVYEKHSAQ
# assay-notes: FBPase inhibition assay (Taketa and Pogell): conversion of fructose-1,6-bisphosphate to fructose-6-phosphate, NADPH formation at 340 nm via coupled reactions
# Format: biochemical
# measurement-conditions: concentration of inhibitor giving 50% inhibition of FBPase activity; read-out: IC50
property: IC50 (µM)

A = N#Cc1ccc(C(C(=O)NCCc2cccc(O)c2)N2C(=O)[C@@H]3Cc4ccccc4CN3C(=O)[C@@H]2CC2CCCCC2)cc1 (stereo partly drawn)
B = O=C(O)CCCCCNC(=O)C(c1ccc(Oc2ccccc2)cc1)N1C(=O)[C@H](Cc2ccccc2)NC(=O)[C@@H]1CC1CCCCC1 (stereo partly drawn)
C = N#Cc1ccc(C(C(=O)NCCc2ccc(O)cc2)N2C(=O)C3Cc4ccc(O)cc4CN3C(=O)[C@@H]2CC2CCCCC2)cc1 (stereo partly drawn)
D = O=C(O)CCCCCNC(=O)C(c1ccc(Oc2ccccc2)cc1)N1C(=O)C(Cc2ccc([N+](=O)[O-])cc2)NC(=O)C1Cc1ccccc1 (stereo not drawn)
Lookup: Rank the 4 molecules: largest IC50 first, smallest last. Response field: labels, in requested order.
Found: D, B, A, C
(D: 95 µM, B: 34 µM, A: 8 µM, C: 0.37 µM)
